- Measured Target: T1, HLA-A*02:01 class I complex (conditional p*HLA*02:01, biotinylated heavy chain with beta2-microglobulin) (human, biotinylated heavy chain)
- T1 construct: UV-labile peptide p* is cleaved and exchanged for the test peptide; also called HLA 2.1
- Method Notes: UV peptide exchange, HLA class I ELISA, % of Pos peptide;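 also: Streptavidin-captured HLA complexes after exchange detected via HRP anti-human B2M antibody, absorbance read, colour scales with intact complex, normalized to exchange control peptide as 100%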
Test Readout: Exch II (%)

binder="YLDCGIHSV (also called M022) [CTNNB1_S33C5 mimic peptide YLDCGIHSV]" test_readout="Exch II (%)" result_unit=% reported_measurement=104
binder="NMDEYVHNV (also called M111) [SF3B1_R625H5 mimic peptide NMDEYVHNV]" test_readout="Exch II (%)" result_unit=% reported_measurement=80.6
binder="YLDSGIHFG (also called M030) [CTNNB1.S37F mutant peptide YLDSGIHFG]" test_readout="Exch II (%)" result_unit=% reported_measurement=53.2
binder="GMAPPQLLV (also called M142) [TP53_H193L6 mimic peptide GMAPPQLLV]" test_readout="Exch II (%)" result_unit=% reported_measurement=13.9
